- TARGET_OR_SYSTEM: LiTryR (Leishmania infantum, UniProt A4HSF7)
- Construct: HIS (N); made in house; host or cells: E. coli BL21 (DE3) Rossetta
- Sequence (A4HSF7 1-491): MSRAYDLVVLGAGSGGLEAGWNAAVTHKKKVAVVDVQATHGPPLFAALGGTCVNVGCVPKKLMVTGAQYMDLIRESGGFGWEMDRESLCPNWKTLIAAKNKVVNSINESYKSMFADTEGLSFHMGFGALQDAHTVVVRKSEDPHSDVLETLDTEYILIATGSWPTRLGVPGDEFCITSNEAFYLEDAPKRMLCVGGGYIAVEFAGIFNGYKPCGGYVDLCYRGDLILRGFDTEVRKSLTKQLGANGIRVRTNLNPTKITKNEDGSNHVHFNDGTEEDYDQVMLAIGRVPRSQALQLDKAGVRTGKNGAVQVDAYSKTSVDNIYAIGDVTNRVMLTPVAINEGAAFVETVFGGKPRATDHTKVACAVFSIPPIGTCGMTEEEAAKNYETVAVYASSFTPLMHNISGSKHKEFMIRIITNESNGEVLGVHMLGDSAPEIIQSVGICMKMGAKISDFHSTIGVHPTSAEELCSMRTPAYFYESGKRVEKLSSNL
- TEST_DESCRIPTION: Time-dependent inhibition kinetics of LiTryR (modified DTNB-coupled assay)
- Type: biochemical
- RUN_CONDITIONS: [TS2] 3.1 μM; read-out: Ki^app
pKi: −log10 of the molar value.
MEASURED_METRIC: pKi

INSERT INTO results (molecule, value) VALUES
  ('NCCCCc1cn(-c2ccc(-c3nc(-c4ccccc4)c(-c4ccccc4)s3)c(OCCN3CCNC3=O)c2)nn1.O=C(O)C(F)(F)F [19a]', 5.05);

###

// values below are reported pKi
- TARGET_OR_SYSTEM: LiTryR (Leishmania infantum, UniProt A4HSF7)
- Construct: HIS (N); made in house; host or cells: E. coli BL21 (DE3) Rossetta
- TEST_DESCRIPTION: Time-dependent inhibition kinetics of LiTryR (modified DTNB-coupled assay)
- Type: biochemical
- RUN_CONDITIONS: two-step mechanism, fit of Ki^app to eq 3; read-out: Ki (initial EI complex)
pKi: −log10 of the molar value.
MEASURED_METRIC: pKi

INSERT INTO results (compound, value) VALUES
  ('NCCCCc1cn(-c2ccc(-c3nc(CCc4ccc5ccccc5c4)cs3)c(OCCN3CCNC3=O)c2)nn1.O=C(O)C(F)(F)F [12b]', 5.00),
  ('NCCCCc1cn(-c2ccc(-c3nc(-c4ccccc4)c(-c4ccccc4)s3)c(OCCN3CCNC3=O)c2)nn1.O=C(O)C(F)(F)F [19a]', 5.11);

###

- TEST_DESCRIPTION: Cytotoxicity in THP-1 monocyte-derived macrophages (LDH activity)
- Assay type: cell-based, human
- RUN_CONDITIONS: human; 75 μM (maximum concentration assayed); read-out: Cell viability of amastigote-infected THP-1 monocyte-derived macrophages at 75 μM
- Description: THP-1 cells were grown in RPMI-1640 medium (Gibco, Leiden, The Netherlands) supplemented with 10% heat-inactivated FCS, antibiotics, 10 mM HEPES, 2 mM glutamine, and 1 mM sodium pyruvate, pH 7.2, at 37 °C and 5% CO2. […] Cytotoxicity of THP-1 infected macrophages was determined using an in-house developed lactate dehydrogenase (LDH) activity assay. […] The color intensity of the generated formazan dye was monitored at 570 nm using an EnSpire Multimode Plate Reader (PerkinElmer, Waltham, MA). […]
Measured viability at 72 h, 75 µM, listed per entry.
MEASURED_METRIC: viability at 72 h, 75 µM (%)

INSERT INTO measurements (compound, measured_metric, value) VALUES
  ('NCCCCc1cn(-c2ccc(-c3nc(CCc4ccc(-c5ccccc5)cc4)cs3)c(OCCN3CCNC3=O)c2)nn1.O=C(O)C(F)(F)F [12c]', 'viability at 72 h, 75 µM', 100),
  ('NCCCCc1cn(-c2ccc(-c3nc(-c4ccc(Oc5ccccc5)cc4)c(-c4ccccc4)s3)c(OCCN3CCNC3=O)c2)nn1.O=C(O)C(F)(F)F [19c]', 'viability at 72 h, 75 µM', 63),
  ('NCCCCc1cn(-c2ccc(-c3nc(CCc4ccc5c(c4)CCCN5)cs3)c(OCCN3CCNC3=O)c2)nn1.O=C(O)C(F)(F)F.O=C(O)C(F)(F)F [12q]', 'viability at 72 h, 75 µM', 67),
  ('NCCCc1cn(-c2ccc(-c3nc(CCc4ccc(-c5ccccc5)cc4)cs3)c(OCCN3CCNC3=O)c2)nn1.O=C(O)C(F)(F)F [12i]', 'viability at 72 h, 75 µM', 100);

###

- TARGET_OR_SYSTEM: LiTryR (Leishmania infantum, UniProt A4HSF7)
- Construct: HIS (N); made in house; host or cells: E. coli BL21 (DE3) Rossetta
- TEST_DESCRIPTION: Time-dependent inhibition kinetics of LiTryR (modified DTNB-coupled assay)
- Type: biochemical
- RUN_CONDITIONS: DTNB-coupled assay, initial velocities, alpha value of 1; read-out: Ki, noncompetitive hyperbolic inhibition mechanism
MEASURED_METRIC: Ki (µM)

INSERT INTO results (compound, value) VALUES
  ('NCCCCc1cn(-c2ccc(-c3nc(-c4ccccc4)c(-c4ccccc4)s3)c(OCCN3CCNC3=O)c2)nn1.O=C(O)C(F)(F)F [19a]', 12.7);

###

- TARGET_OR_SYSTEM: LiTryR dimer (Leishmania infantum, UniProt A4HSF7)
- Construct: made in house; host or cells: E. coli BL21 (DE3) Rossetta (co-transformed with both plasmids)
- Sequence (A4HSF7 1-491): as the sequence (A4HSF7 1-491) above
- TEST_DESCRIPTION: biochemical
- RUN_CONDITIONS: read-out: Percentage of inhibition (dimerization) observed at 20 μM, 20 μM compound
- Method: The stability of the LiTryR dimeric form in the presence of 1,2,3-triazole-phenyl-thiazole-based compounds was evaluated using the novel enzyme-linked immunosorbent assay (ELISA) developed in our laboratory.[25] […] Next, the different solutions were centrifuged at 18 000g for 15 min at room temperature. […] The enzymatic reaction was stopped after 5 min with H2SO4 (100 μL, […]), and the absorbances were measured at 490 nm in an EnSpire Multimode Plate Reader (PerkinElmer, Waltham, MA). […]
Listing of recorded inhibition at 20 µM by entry.
MEASURED_METRIC: inhibition at 20 µM (%)

INSERT INTO measurements (molecule, value) VALUES
  ('NCCCCc1cn(-c2ccc(-c3nc(CCc4ccc5ccccc5c4)cs3)c(OCCN3CCNC3=O)c2)nn1.O=C(O)C(F)(F)F [12b]', 73),
  ('NCCCCc1cn(-c2ccc(-c3nc(CCc4ccc(-c5ccccc5)cc4)cs3)c(OCCN3CCNC3=O)c2)nn1.O=C(O)C(F)(F)F [12c]', 78);

###

- TARGET_OR_SYSTEM: LiTryR (Leishmania infantum)
- Construct: HIS (N); made in house; host or cells: E. coli BL21 (DE3) Rossetta
- TEST_DESCRIPTION: Time-dependent inhibition kinetics of LiTryR (modified DTNB-coupled assay)
- Format: biochemical
- RUN_CONDITIONS: [TS2] 6.2 μM; read-out: Ki^app
MEASURED_METRIC: Ki

INSERT INTO assay_data (compound, measured_metric, value) VALUES
  ('NCCCCc1cn(-c2ccc(-c3nc(-c4ccccc4)c(-c4ccccc4)s3)c(OCCN3CCNC3=O)c2)nn1.O=C(O)C(F)(F)F [19a]', 'Ki', '7.2 µM');

###

The entries below come with measured pIC50 values attached.
- TARGET_OR_SYSTEM: UniProtKB P13110
- Sequence (P13110 whole entry): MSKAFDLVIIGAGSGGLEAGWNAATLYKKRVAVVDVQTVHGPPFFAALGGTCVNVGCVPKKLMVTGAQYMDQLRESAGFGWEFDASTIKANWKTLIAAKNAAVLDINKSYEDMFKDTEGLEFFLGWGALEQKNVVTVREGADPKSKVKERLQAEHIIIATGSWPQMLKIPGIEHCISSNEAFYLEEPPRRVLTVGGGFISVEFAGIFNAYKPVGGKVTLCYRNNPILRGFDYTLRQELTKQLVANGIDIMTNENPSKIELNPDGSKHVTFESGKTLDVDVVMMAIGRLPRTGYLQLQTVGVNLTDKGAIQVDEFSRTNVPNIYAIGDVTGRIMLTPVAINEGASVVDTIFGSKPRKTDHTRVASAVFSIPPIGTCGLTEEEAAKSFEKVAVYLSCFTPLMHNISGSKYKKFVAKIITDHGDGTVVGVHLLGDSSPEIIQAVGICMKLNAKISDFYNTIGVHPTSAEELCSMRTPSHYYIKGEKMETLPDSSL
pIC50: −log10 of the molar value.
MEASURED_METRIC: pIC50

INSERT INTO assay_data (molecule, target_or_system, value) VALUES
  ('NCCCCc1cn(-c2ccc(-c3nc(-c4cccc(-c5csc(-c6ccc(-n7cc(CCCCN)nn7)cc6OCCN6CCNC6=O)n5)c4)cs3)c(OCCN3CCNC3=O)c2)nn1.O=C(O)C(F)(F)F.O=C(O)C(F)(F)F [compound 22]', 'UniProtKB P13110', 6.30),
  ('NCCCCc1cn(-c2ccc(-c3nc(CCc4ccc5c(c4)CCO5)cs3)c(OCCN3CCNC3=O)c2)nn1.O=C(O)C(F)(F)F [12r]', 'UniProtKB P13110', 5.00),
  ('NCCCCc1cn(-c2ccc(-c3nc(-c4ccccc4)c(-c4ccccc4)s3)c(OCCN3CCNC3=O)c2)nn1.O=C(O)C(F)(F)F [19a]', 'UniProtKB P13110', 5.25);

###

- TARGET_OR_SYSTEM: LiTryR (Leishmania infantum, UniProt A4HSF7)
- Construct: HIS (N); made in house; host or cells: E. coli BL21 (DE3) Rossetta
- TEST_DESCRIPTION: Time-dependent inhibition kinetics of LiTryR (modified DTNB-coupled assay)
- Assay type: biochemical
- RUN_CONDITIONS: reaction progress curves / kinetic analysis
MEASURED_METRIC: mechanism of LiTryR inhibition

INSERT INTO results (molecule, target_or_system, value) VALUES
  ('NCCCCc1cn(-c2ccc(-c3nc(CCc4ccc5oc6ccccc6c5c4)cs3)c(OCCN3CCNC3=O)c2)nn1.O=C(O)C(F)(F)F [12s]', 'LiTryR (Leishmania infantum, UniProt A4HSF7)', 'slow-binding inhibitors'),
  ('NCCCCc1cn(-c2ccc(-c3nc(CCc4ccc(-c5ccccc5)cc4)cs3)c(OCCN3CCNC3=O)c2)nn1.O=C(O)C(F)(F)F [12c]', 'LiTryR (Leishmania infantum, UniProt A4HSF7)', 'slow-binding inhibitors'),
  ('NCCCCc1cn(-c2ccc(-c3nc(CCc4ccc5c(c4)CCO5)cs3)c(OCCN3CCNC3=O)c2)nn1.O=C(O)C(F)(F)F [12r]', 'LiTryR (Leishmania infantum, UniProt A4HSF7)', 'slow-binding inhibitors');
